assay: Metabolic stability in liver microsomes, human; assay type: in vitro ADME; settings: Human (M) microsomes, 1 μM
Reported % Remaining at 60 minutes values for a set of compounds

>  <chemical_structure>
C[C@@H](O)[C@H](N)C(=O)N1CCC[C@H]1C(=O)N1CCC[C@@]1(Cc1cccc(F)c1)C(=O)N[C@H](C(N)=O)[C@@H](C)O

>  <% Remaining at 60 minutes, %>
69

$$$$
>  <chemical_structure>
Cc1cccc(C[C@@]2(C(=O)N[C@H](C(N)=O)[C@@H](C)O)CCCN2C(=O)[C@@H]2CCCN2C(=O)[C@@H](N)[C@@H](C)O)c1

>  <% Remaining at 60 minutes, %>
75

$$$$
>  <chemical_structure>
Cc1ccc(C[C@@]2(C(=O)N[C@H](C(N)=O)[C@@H](C)O)CCCN2C(=O)[C@@H]2CCCN2C(=O)[C@@H](N)[C@@H](C)O)cc1

>  <% Remaining at 60 minutes, %>
86

$$$$
>  <chemical_structure>
C[C@@H](O)[C@H](N)C(=O)N1CCC[C@H]1C(=O)N1CCC[C@@]1(Cc1ccc(F)cc1)C(=O)N[C@H](C(N)=O)[C@@H](C)O

>  <% Remaining at 60 minutes, %>
88

$$$$
>  <chemical_structure>
C[C@@H](O)[C@H](N)C(=O)N1CCC[C@H]1C(=O)N1CCC[C@@]1(Cc1ccccc1)C(=O)N[C@H](C(N)=O)[C@@H](C)O

>  <% Remaining at 60 minutes, %>
72

$$$$

---

target: NMDA receptor (Rattus norvegicus); experiment: [^3H] MK-801 binding assay; settings: read-out: Efficacy (% Increase in [^3H] MK-801 Binding)
Outcome: satisfied for Emax of at least 10%; not satisfied for anything lower.

>  <compound>
COc1cc(CC2(C(=O)NC(C(N)=O)C(C)O)CCCN2C(=O)C2CCCN2C(=O)C(N)C(C)O)cc(OC)c1OC (stereo not drawn) [CM-14]

>  <cat>
not satisfied

$$$$
>  <compound>
C[C@@H](O)[C@H](NC(=O)C1(Cc2ccccc2)CCCN1C(=O)[C@@H]1CCCN1C(=O)[C@@H](N)CO)C(N)=O (stereo partly drawn) [CM-10]

>  <cat>
satisfied

$$$$
>  <compound>
Cc1cccc(CC2(C(=O)NC(C(N)=O)C(C)O)CCCN2C(=O)C2CCCN2C(=O)C(N)C(C)O)c1 (stereo not drawn) [CM-8]

>  <cat>
satisfied

$$$$
>  <compound>
CC(O)C(N)C(=O)N1CCCC1C(=O)N1CCCC1(Cc1cc(Br)cc(Br)c1)C(=O)NC(C(N)=O)C(C)O (stereo not drawn) [CM-12]

>  <cat>
satisfied

$$$$
>  <compound>
COc1ccc(CC2(C(=O)N[C@H](C(N)=O)[C@@H](C)O)CCCN2C(=O)[C@@H]2CCCN2C(=O)[C@@H](N)[C@@H](C)O)cc1 (stereo partly drawn) [CM-11]

>  <cat>
not satisfied

$$$$
>  <compound>
CC(O)C(N)C(=O)N1CCCC1C(=O)N1CCCC1(Cc1ccc(F)cc1)C(=O)NC(C(N)=O)C(C)O (stereo not drawn) [CM-6]

>  <cat>
satisfied

$$$$
>  <compound>
CC(O)C(N)C(=O)N1CCCC1C(=O)N1CCCC1(Cc1ccc(C(F)(F)F)cc1)C(=O)NC(C(N)=O)C(C)O (stereo not drawn) [CM-7]

>  <cat>
satisfied

$$$$
>  <compound>
CC(O)C(N)C(=O)N1CCCC1C(=O)N1CCCC1(Cc1cccc(F)c1)C(=O)NC(C(N)=O)C(C)O (stereo not drawn) [CM-9]

>  <cat>
satisfied

$$$$

Where these numbers come from: patent US20150051262A1
